Assay: chemical genetic growth profiling, strain panel (AID 1159580);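 further: tested at 20 µM; growth read once vehicle control cultures reached saturation at 30 °C; 1 = growth at the plate median or of vehicle wells; lower values mean less growth of the strain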
Settings: S. cerevisiae deletion strains, growth OD, locus YOL147C, strain pex11, hits give low values
The whole screen tested about 5,500 compounds, of which about 2,000 (36%) were called active. Not shown: some 18% with an inconclusive outcome. This is one part of the list.
Metric name: normalized growth

| Molecule | Metric name | Endpoint result |
| --- | --- | --- |
| Nc1nc(N)c2nc(CNc3ccc(C(=O)NC(CCC(=O)O)C(=O)O)cc3)cnc2n1 (stereo not drawn) | normalized growth | 0.998 |
| Nc1nc2c(c(=O)[nH]1)N(C=O)C(CNc1ccc(C(=O)N[C@@H](CCC(=O)O)C(=O)O)cc1)CN2 (stereo partly drawn) | normalized growth | 0.978 |
| COc1cc(C)c2c(c1C=O)Oc1c(c(C)c(O)c3c1C(O)OC3=O)OC2=O (stereo not drawn) | normalized growth | 0.991 |
| COc1cc(/C=C/C(=O)O)ccc1O | normalized growth | 0.969 |
| C/C=C/c1ccc(OC)cc1 | normalized growth | 1.01 |
| COS(C)(=O)=O | normalized growth | 1.01 |
| COc1cc(/C=C/C(=O)O)cc(OC)c1OC | normalized growth | 1.02 |
| CS(=O)(=O)OCCCCOS(C)(=O)=O | normalized growth | 0.972 |
